Field: optical density. Provide a value for each of the binders that follow.
target: human Fc (human); experiment: ELISA, negative control
Answers are plain numbers, in OD.

• 371_A04 (antibody, V domains shown) VH: EVQLLESGGGLVQPGGSLRLSCAASGFTFDSYGMNWVRQAPGKGLEWVSSINYNSGYTGYADSVKGRFTISRDNSKNTLYLQMNSLRAEDTAVYYCARAANWHDTALDYWGQGTLVTVSS VL: DIQMTQSPSSLSASVGDRVTITCRASQSILTYLNWYQQKPGKAPKLLIYAVTSRASGVPSRFSGSGSGTDFTLTISSLQPEDFATYYCQQSYDTPLTFGGGTKVEIK = 0.315

For the next question, use this binder.
Form field optical density, entry 375_D10 (antibody, V domains shown) VH: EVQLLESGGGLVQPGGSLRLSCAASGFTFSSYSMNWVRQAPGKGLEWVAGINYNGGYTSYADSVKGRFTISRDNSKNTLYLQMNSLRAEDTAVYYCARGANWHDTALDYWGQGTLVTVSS VL: DIQMTQSPSSLSASVGDRVTITCRASQSILTYVNWYQQKPGKAPKLLIYAATSRASGVPSRFSGSGSGTDFTLTISSLQPEDFATYYCQQSDDSPLTFGGGTKVEIK : 0.228
